Data origin: patent US11795460B2

# System: TTR
# assay-details: TTR editing in primary human hepatocytes transfected with Spy Cas9 protein (RNP) loaded with dgRNAs (Table 8)
# Assay type: cell-based
# details: dgRNA transfected with Spy Cas9 protein (RNP)
parameter: Avg % Insert (%)

# biosequence, parameter, unit-descriptor, result-value
records = [
    ("UGAAUCCAAGUGUCCUCUGA (tested as dual guide RNA, chemistry not given here) [CR005303]", "Avg % Insert", "%", 36.06),
    ("UGGACUGGUAUUUGUGUCUG (tested as dual guide RNA, chemistry not given here) [CR003340]", "Avg % Insert", "%", 5.94),
    ("GCAGGGCGGCAAUGGUGUAG (tested as dual guide RNA, chemistry not given here) [CR003380]", "Avg % Insert", "%", 7.71),
    ("UCUAGAACUUUGACCAUCAG (tested as dual guide RNA, chemistry not given here) [CR003345]", "Avg % Insert", "%", 21.00),
    ("AUAGGAGUAGGGGCUCAGCA (tested as dual guide RNA, chemistry not given here) [CR003383]", "Avg % Insert", "%", 4.52),
    ("CCUCUGCAUGCUCAUGGAAU (tested as dual guide RNA, chemistry not given here) [CR003370]", "Avg % Insert", "%", 18.80),
    ("ACUGAGGAGGAAUUUGUAGA (tested as dual guide RNA, chemistry not given here) [CR003363]", "Avg % Insert", "%", 21.47),
    ("GCAACUUACCCAGAGGCAAA (tested as dual guide RNA, chemistry not given here) [CR003356]", "Avg % Insert", "%", 6.24),
    ("AGCCUUUCUGAACACAUGCA (tested as dual guide RNA, chemistry not given here) [CR003351]", "Avg % Insert", "%", 23.92),
    ("UAUAGGAAAACCAGUGAGUC (tested as dual guide RNA, chemistry not given here) [CR005305]", "Avg % Insert", "%", 6.73),
    ("AAUAGGAGUAGGGGCUCAGC (tested as dual guide RNA, chemistry not given here) [CR003384]", "Avg % Insert", "%", 3.39),
    ("CUGCUCCUCCUCUGCCUUGC (tested as dual guide RNA, chemistry not given here) [CR003335]", "Avg % Insert", "%", 49.51),
    ("CCCAGAGGCAAAUGGCUCCC (tested as dual guide RNA, chemistry not given here) [CR003355]", "Avg % Insert", "%", 17.69),
    ("GGCCGUGCAUGUGUUCAGAA (tested as dual guide RNA, chemistry not given here) [CR005304]", "Avg % Insert", "%", 4.32),
]
